Listing of recorded normalized RNA/DNA level without ligand (log10) by entry.
B1: library; a variant is named by its letters at N, in order (parent)
chain: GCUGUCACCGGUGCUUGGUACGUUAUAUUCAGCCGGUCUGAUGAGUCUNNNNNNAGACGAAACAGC

variants of: B1; assay: normalized RNA/DNA level without ligand (relative to sTRSVctl = 100) (log10 (% of sTRSVctl)); HEK293T overexpressing SLC46A1; higher = less ribozyme self-cleavage, higher mRNA level; settings: without (6R,S)-folinic acid; ligand present: no

Solved entries (count: 5):
variant_designation=GCGGAG assay_value=1.89
variant_designation=UGCAGC assay_value=1.98
variant_designation=AGCUAC assay_value=2.03
variant_designation=GACACC assay_value=2.03
variant_designation=GCCAAG assay_value=2.02

Then there is this variant:
Memo: AAGGUU , reported normalized RNA/DNA level without ligand (log10): 1.97
